meta.source: paper PMC12153294

Would you kindly list pEC50 for each of these compounds?
system: JHMV-WT; experiment: microbe, parasite or virus in culture; type: cell-based, murine hepatitis virus (MHV); settings: Murine coronavirus; read-out: EC50, % JHMV-WT inhibition on DBT cells
One number for each entry, as −log10 of the molar value.

Observe how each entry below is paired with its result.
[
  {
    "SMILES DATA": "O=C(NCc1ccccn1)[C@H](Cc1c[nH]c2ccccc12)Nc1ncnc2[nH]ccc12",
    "QUANTITY NAME": "pEC50",
    "ASSAY VALUE": 4.11
  },
  {
    "SMILES DATA": "CC(C)OC(=O)[C@H](Cc1c[nH]c2ccccc12)Nc1ncnc2[nH]ccc12",
    "QUANTITY NAME": "pEC50",
    "ASSAY VALUE": 4.74
  }
]

Q) # query: pEC50 of entry O=C(NCc1ccccn1)[C@@H](Cc1c[nH]c2ccccc12)Nc1ncnc2[nH]ccc12
A) 4.27

----------
tested on: SARS-CoV-2 (Wuhan strain); test: microbe, parasite or virus in culture; format: cell-based; conditions: Severe acute respiratory syndrome coronavirus 2; Calu-3, presence of IFN-γ; estimated from fold reductions; read-out: EC50 against SARS-CoV-2
Would you kindly list EC50 for each of these compounds?

[
  {
    "COMPOUND": "O=C(NCc1ccccn1)[C@@H](Cc1c[nH]c2ccccc12)Nc1ncnc2[nH]ccc12 [Compound 6e]",
    "EC50": "≤ 12.5 µM"
  }
]

Next up:
Q) Checklist item: EC50 tested on SARS-CoV-2 (Wuhan strain), entry CC(C)OC(=O)[C@H](Cc1c[nH]c2ccccc12)Nc1ncnc2[nH]ccc12 [Compound 5c] , value?
A) ≤ 12.5 µM

----------
Would you kindly list IC50 for each of these molecules?
experiment: AlphaScreen counter screen with Bn-His6 control peptide; details: Bn-His peptide control; unit inferred, same figure table as Mac1 IC50 (μM); NI not defined

Observe how each entry below is paired with its result.
[
  {
    "MOLECULE": "O=C(NCc1ccncc1)[C@H](Cc1c[nH]c2ccccc12)Nc1ncnc2[nH]ccc12 [Compound 6a]",
    "ASSAY VALUE": "> 100 µM"
  },
  {
    "MOLECULE": "O=C(NCc1ccccn1)[C@H](Cc1c[nH]c2ccccc12)Nc1ncnc2[nH]ccc12 [Compound 6d]",
    "ASSAY VALUE": "79.2 µM"
  }
]

Each molecule below has a recorded value; state its IC50.
1. COC(=O)[C@H](Cc1c[nH]c2ccccc12)Nc1ncnc2[nH]ccc12 [Compound 5a]
2. O=C(NCc1ccnc(Cl)c1)[C@H](Cc1c[nH]c2ccccc12)Nc1ncnc2[nH]ccc12 [Compound 6b]
3. O=C(O)C(Cc1c[nH]c2ccccc12)Nc1ncnc2[nH]ccc12 (stereo not drawn) [Compound 4b]
4. O=C(O)C(Cc1c[nH]c2ccccc12)Nc1ncnc2[nH]ccc12 (stereo not drawn) [Compound 4a]
5. CC(C)OC(=O)[C@H](Cc1c[nH]c2ccccc12)Nc1ncnc2[nH]ccc12 [Compound 5c]
6. NC(=O)[C@H](Cc1c[nH]c2ccccc12)Nc1ncnc2[nH]ccc12 [Compound 6c]

A)
1. > 100 µM
2. > 100 µM
3. > 100 µM
4. > 100 µM
5. 25.5 µM
6. > 100 µM

Q) # query: IC50 of entry O=C(NCc1ccccn1)[C@@H](Cc1c[nH]c2ccccc12)Nc1ncnc2[nH]ccc12 [Compound 6e]
A) 39.6 µM
